Every entry's value here was drawn from patent US20140234351A1.

# target.or.system: T1, HLA-A*0201 molecules on TAP-deficient T2 cells (human)
# T1 construct: also called HLA-A2; T2 cells expressing HLA-A2
# assay.info: T2 cell binding assay, fluorescence index (MFI peptide - MFI untreated)/MFI untreated
assay.readout: MFI index

{"columns": ["binder", "MFI index"],
 "data": [
  ["VLPLTVAEV (Synthetic peptide; also called mesothelinp531; mesothelin p531) [Mesothelin 531-539 HLA-A2 peptide]", "> 1.5"],
  ["WLPFGFILI (Synthetic peptide; also called IL-13Rα2p345; IL-13Rα2 p345) [IL-13Rα2 345-352 HLA-A2 peptide]", "> 1.5"],
  ["TLADFDPRV (Synthetic peptide; also called EphA2p883; EphA2 p883) [EphA2 883-891 HLA-A2 peptide]", "> 1.5"],
  ["EIWTHSYKV (Synthetic peptide; also called FOLR1p191; FOLR1 p191) [FOLR1 191-199 HLA-A2 peptide]", "< 1"]
]}

Please turn your attention to the following entry.
## Input Request the reported MFI index associated with KVLEYVIKV (Synthetic peptide; also called MAGEA1p278; MAGE-A1 p278) [MAGE-A1 278-286 HLA-A2 peptide]
## Output > 1.5
